tested on: Rattus norvegicus; test: Distribution of radioactivity was determined in thyroid at 3h after intravenous administration of [125I]-labeled 2-oleoglycerol 1,3-Bis-[omega-(3-amino-2,4,6-triiodophenyl)alkanoates] in rats; format: ADME, organism-based, Thyroid gland; settings: in vivo
The label fulfilled is reserved for Distribution of radioactivity strictly under 2 % dose/g; not fulfilled covers values equal to or above it.

Problem: Identify whether the compound CCCCCCCC/C=C/CCCCCCCC(=O)OC(COC(=O)C(CC)Cc1c(I)cc(I)c(N)c1I)COC(=O)C(CC)Cc1c(I)cc(I)c(N)c1I (stereo not given) records Distribution of radioactivity below 2 % dose/g.
Solution: not fulfilled

Problem: Distribution of radioactivity under 2 % dose/g? Item: CCCCCCCC/C=C/CCCCCCCC(=O)OC(COC(=O)CCCCc1c(I)cc(I)c(N)c1I)COC(=O)CCCCc1c(I)cc(I)c(N)c1I
Solution: fulfilled

Problem: For CCCCCCCC/C=C/CCCCCCCC(=O)OC(COC(=O)Cc1c(I)cc(I)c(N)c1I)COC(=O)Cc1c(I)cc(I)c(N)c1I , is the recorded Distribution of radioactivity below the cut-off of 2 % dose/g?
Solution: fulfilled

Problem: For CCCCCCCC/C=C/CCCCCCCC(=O)OC(COC(=O)CCCCCc1c(I)cc(I)c(N)c1I)COC(=O)CCCCCc1c(I)cc(I)c(N)c1I , is the recorded Distribution of radioactivity below the cut-off of 2 % dose/g?
Solution: fulfilled

Problem: Check if Distribution of radioactivity falls below 2 % dose/g for CCCCCCCC/C=C/CCCCCCCC(=O)OC(COC(=O)CCCCCCc1c(I)cc(I)c(N)c1I)COC(=O)CCCCCCc1c(I)cc(I)c(N)c1I .
Solution: fulfilled

---

Consider the following molecules; for each one, report its Distribution of radioactivity.
test system: Rattus norvegicus; assay: Distribution of radioactivity was determined in liver at 3h after intravenous administration of 1,3-Disubstituted Triacylglycerols in rats; format: ADME, organism-based; conditions: in vivo
Express it in % dose/organ; write the number only.

Problem: Annotate the molecule CCCCCCCC/C=C/CCCCCCCC(=O)OC(COC(=O)Cc1c(I)cc(I)c(N)c1I)COC(=O)Cc1c(I)cc(I)c(N)c1I with its measured Distribution of radioactivity.
Solution: 79

Problem: Tell us which Distribution of radioactivity value is on record for CCCCCCCC/C=C/CCCCCCCC(=O)OC(COC(=O)CCCCCCc1c(I)cc(I)c(N)c1I)COC(=O)CCCCCCc1c(I)cc(I)c(N)c1I
Solution: 45.8

Problem: Answer with the recorded Distribution of radioactivity of CCCCCCCC/C=C/CCCCCCCC(=O)OC(COC(=O)CCCCCc1c(I)cc(I)c(N)c1I)COC(=O)CCCCCc1c(I)cc(I)c(N)c1I only.
Solution: 66

Problem: Give Distribution of radioactivity for the following molecule: CCCCCCCC/C=C/CCCCCCCC(=O)OC(COC(=O)C(CC)Cc1c(I)cc(I)c(N)c1I)COC(=O)C(CC)Cc1c(I)cc(I)c(N)c1I (stereo not given)
Solution: 80

Problem: Look up and state reported Distribution of radioactivity for CCCCCCCC/C=C/CCCCCCCC(=O)OC(COC(=O)CCCCc1c(I)cc(I)c(N)c1I)COC(=O)CCCCc1c(I)cc(I)c(N)c1I
Solution: 60.7

Entry source: ChEMBL document CHEMBL1128242
